Tested on: NCI-H226
Test Protocol: NCI tumour cell line growth inhibition, 48 h
Active and inactive are the calls of the source. Rule as the data show it: active = GI50 up to about 1.1 µM and inactive = higher.
Result category, one only: active, inactive

These solved cases illustrate the format of a correct answer.
CCC/C(=N\NC(=S)N1CC2CCC(CC2)C1)c1ccccn1
inactive
C#CCNC(=O)NCCCCC(NC(C)=O)C(=O)NCc1ccccc1 (stereo unspecified)
inactive
CC/C(C)=C1\CCC(CN2CCOCC2)C1=O (stereo unspecified)
inactive
C/C(=N\NS(=O)(=O)c1ccc(C)cc1)c1c(O)cc(C)oc1=O
inactive

query: Per the assay record, what outcome was assigned to `CC(C)NCCCNc1c2ccccc2nc2cccc([N+](=O)[O-])c12` ?
result: active

query: Also, `Nc1nc(NNc2ccc(Cl)c(Cl)c2)cc(=O)[nH]1` please.
result: inactive

query: Also, `Oc1ccc(O)c(Sc2nnc(CCCCCCCCc3nnc(Sc4cc(O)ccc4O)o3)o2)c1` please.
result: inactive

query: Also, `CC(C)=NNc1cnnc2ccc([N+](=O)[O-])cc12` please.
result: inactive

query: Also, `CC(=O)NNC(=S)N/C=C1/C(=O)Oc2ccccc2C1=O` please.
result: inactive

query: Also, `O=c1[nH]c(=O)n(COCc2ccccc2)cc1Nc1ccc(Br)cc1` please.
result: inactive

query: Also, `COC(CN(C)C(=S)Nc1cccc2ccccc12)OC` please.
result: inactive
